# System: Erythrocyte
# protocolSummary: Hemolytic activity in male Sprague-Dawley rat erythrocytes assessed as concentration required for 10% hemolysis incubated for 1 hr by absorbance based method
# Format: toxicity, cell-based
Non-standard residues stand in square brackets, D forms with d. Residues, ends and D or L forms follow the SMILES beside them. *: point of attachment. X1 = NC(=O)[C@H](Cc1c[nH]cn1)NC(=O)CNC(=O)[C@@H](N)CN*; Gly(N(CH2)2(3-indolyl)) = O=C(O)CNCCc1c[nH]c2ccccc12; Nspe = C[C@H](NCC(=O)O)c1ccccc1; Nphe = O=C(O)CNCc1ccccc1; Nlys = NCCCCNCC(=O)O

{"columns": ["compound", "qualifier", "HC10 (µM)"],
 "data": [
  ["C[C@@H](c1ccccc1)N(CC(N)=O)C(=O)CN(CCCCN)C(=O)CN(C(=O)CN(C(=O)CN(CCCCN)C(=O)CN(C(=O)CN(C(=O)CN(CCCCN)C(=O)CN(C(=O)CN(C(=O)CN(CCCCN)C(=O)CNC(=O)[C@H](Cc1c[nH]cn1)NC(=O)CNC(=O)CN)[C@@H](C)c1ccccc1)[C@@H](C)c1ccccc1)[C@@H](C)c1ccccc1)[C@@H](C)c1ccccc1)[C@@H](C)c1ccccc1)[C@@H](C)c1ccccc1 (H-GGHG[Nlys][Nspe][Nspe][Nlys][Nspe][Nspe][Nlys][Nspe][Nspe][Nlys][Nspe]-NH2)", "=", 27.7],
  ["C[C@@H](c1ccccc1)N(CC(=O)N(CCCCN)CC(=O)N(CC(=O)N(CC(=O)N(CCCCN)CC(=O)N(CC(=O)N(CC(=O)N(CCCCN)CC(=O)N(CCc1c[nH]c2ccccc12)CC(=O)N(CCc1c[nH]c2ccccc12)CC(N)=O)[C@@H](C)c1ccccc1)[C@@H](C)c1ccccc1)[C@@H](C)c1ccccc1)[C@@H](C)c1ccccc1)C(=O)CN(C(=O)CNCCCCN)[C@@H](C)c1ccccc1 (H-[Nlys][Nspe][Nspe][Nlys][Nspe][Nspe][Nlys][Nspe][Nspe][Nlys][Gly(N(CH2)2(3-indolyl))][Gly(N(CH2)2(3-indolyl))]-NH2)", "=", 7.7],
  ["C[C@@H](c1ccccc1)N(CC(N)=O)C(=O)CN(CCCCN)C(=O)CN(Cc1ccccc1)C(=O)CN(Cc1ccccc1)C(=O)CN(CCCCN)C(=O)CN(C(=O)CN(C(=O)CN(CCCCN)C(=O)CN(Cc1ccccc1)C(=O)CN(Cc1ccccc1)C(=O)CN(CCCCN)C(=O)CNC(=O)[C@H](Cc1c[nH]cn1)NC(=O)CNC(=O)CN)[C@@H](C)c1ccccc1)[C@@H](C)c1ccccc1 (H-GGHG[Nlys][Nphe][Nphe][Nlys][Nspe][Nspe][Nlys][Nphe][Nphe][Nlys][Nspe]-NH2)", "=", 58.4],
  ["C[C@@H](c1ccccc1)N(CC(N)=O)C(=O)CN(CCCCN)C(=O)CN(C(=O)CN(C(=O)CN(CCCCN)C(=O)CN(C(=O)CN(C(=O)CN(CCCCN)C(=O)CN(C(=O)CN(C(=O)CNCCCCN)[C@@H](C)c1ccccc1)[C@@H](C)c1ccccc1)[C@@H](C)c1ccccc1)[C@@H](C)c1ccccc1)[C@@H](C)c1ccccc1)[C@@H](C)c1ccccc1 (H-[Nlys][Nspe][Nspe][Nlys][Nspe][Nspe][Nlys][Nspe][Nspe][Nlys][Nspe]-NH2)", "=", 9.64],
  ["C[C@@H](c1ccccc1)N(CC(N)=O)C(=O)CN(C(=O)CN(CCCCN)C(=O)CN(Cc1ccccc1)C(=O)CN(Cc1ccccc1)C(=O)CN(CCCCN)C(=O)CN(Cc1ccccc1)C(=O)CN(Cc1ccccc1)C(=O)CN(CCCCN)C(=O)CN(CCc1c[nH]c2ccccc12)C(=O)CN(CCc1c[nH]c2ccccc12)C(=O)CN(CCCCN)C(=O)[C@H](Cc1c[nH]cn1)NC(=O)CNC(=O)CN)[C@@H](C)c1ccccc1 (H-GGH[Nlys][Gly(N(CH2)2(3-indolyl))][Gly(N(CH2)2(3-indolyl))][Nlys][Nphe][Nphe][Nlys][Nphe][Nphe][Nlys][Nspe][Nspe]-NH2)", "=", 16.3],
  ["C[C@@H](c1ccccc1)N(CC(=O)N(CCCCN)CC(=O)N(CC(=O)N(CC(=O)N(CCCCN)CC(=O)N(CC(=O)N(CC(N)=O)Cc1ccccc1)Cc1ccccc1)[C@@H](C)c1ccccc1)[C@@H](C)c1ccccc1)C(=O)CN(C(=O)CN(CCCCN)C(=O)CN(Cc1ccccc1)C(=O)CN(Cc1ccccc1)C(=O)CNCCCCN)[C@@H](C)c1ccccc1 (H-[Nlys][Nphe][Nphe][Nlys][Nspe][Nspe][Nlys][Nspe][Nspe][Nlys][Nphe][Nphe]-NH2)", "=", 22.3],
  ["C[C@@H](c1ccccc1)N(CC(=O)N(CCCCN)CC(=O)N(CC(=O)N(CC(=O)N(CCCCN)CC(=O)N(CC(=O)N(CC(=O)NC[C@H](N)C(=O)NCC(=O)N[C@@H](Cc1c[nH]cn1)C(N)=O)Cc1ccccc1)Cc1ccccc1)[C@@H](C)c1ccccc1)[C@@H](C)c1ccccc1)C(=O)CN(C(=O)CN(CCCCN)C(=O)CN(Cc1ccccc1)C(=O)CN(Cc1ccccc1)C(=O)CNCCCCN)[C@@H](C)c1ccccc1 (H-[Nlys][Nphe][Nphe][Nlys][Nspe][Nspe][Nlys][Nspe][Nspe][Nlys][Nphe][Nphe]-X1)", ">", 100],
  ["C[C@@H](c1ccccc1)N(CC(=O)N(CCCCN)CC(=O)N(CC(=O)N(CC(=O)N(CCCCN)CC(=O)N(CC(=O)N(CC(=O)N(CCCCN)CC(=O)N(CCc1c[nH]c2ccccc12)CC(=O)N(CCc1c[nH]c2ccccc12)CC(N)=O)Cc1ccccc1)Cc1ccccc1)Cc1ccccc1)Cc1ccccc1)C(=O)CN(Cc1ccccc1)C(=O)CN(CCCCN)C(=O)[C@H](Cc1c[nH]cn1)NC(=O)CNC(=O)CN (H-GGH[Nlys][Nphe][Nspe][Nlys][Nphe][Nphe][Nlys][Nphe][Nphe][Nlys][Gly(N(CH2)2(3-indolyl))][Gly(N(CH2)2(3-indolyl))]-NH2)", "=", 20.6]
]}

* * *

# protocolSummary: Hemolytic activity in male Sprague-Dawley rat erythrocytes at 100 uM incubated for 1 hr by absorbance based method relative to control
# Assay type: toxicity, cell-based, Erythrocyte
# details: read-out: Activity
Non-standard residues stand in square brackets, D forms with d. Residues, ends and D or L forms follow the SMILES beside them. *: point of attachment. X1 = NC(=O)[C@H](Cc1c[nH]cn1)NC(=O)CNC(=O)[C@@H](N)CN*; Gly(N(CH2)2(3-indolyl)) = O=C(O)CNCCc1c[nH]c2ccccc12; Nspe = C[C@H](NCC(=O)O)c1ccccc1; Nphe = O=C(O)CNCc1ccccc1; Nlys = NCCCCNCC(=O)O

{"columns": ["molecule", "unitDescriptor", "hemolysis at 1 h, 100 µM"],
 "data": [
  ["C[C@@H](c1ccccc1)N(CC(=O)N(CC(=O)N(CCCCN)CC(=O)N(CC(=O)N(CC(=O)N(CCCCN)CC(=O)N(CC(=O)N(CC(=O)N(CCCCN)CC(=O)N(CC(=O)N(CC(N)=O)Cc1ccccc1)Cc1ccccc1)Cc1ccccc1)Cc1ccccc1)Cc1ccccc1)Cc1ccccc1)Cc1ccccc1)C(=O)CN(CCCCN)C(=O)CNC(=O)[C@H](Cc1c[nH]cn1)NC(=O)CNC(=O)CN (H-GGHG[Nlys][Nspe][Nphe][Nlys][Nphe][Nphe][Nlys][Nphe][Nphe][Nlys][Nphe][Nphe]-NH2)", "%", 1.36],
  ["C[C@@H](c1ccccc1)N(CC(=O)N(CCCCN)CC(=O)N(CCc1c[nH]c2ccccc12)CC(=O)N(CCc1c[nH]c2ccccc12)CC(N)=O)C(=O)CN(CCCCN)C(=O)CN(CCCCN)C(=O)CN(C(=O)CN(C(=O)CN(CCCCN)C(=O)CN(C(=O)CN(C(=O)CNCCCCN)[C@@H](C)c1ccccc1)[C@@H](C)c1ccccc1)[C@@H](C)c1ccccc1)[C@@H](C)c1ccccc1 (H-[Nlys][Nspe][Nspe][Nlys][Nspe][Nspe][Nlys][Nlys][Nspe][Nlys][Gly(N(CH2)2(3-indolyl))][Gly(N(CH2)2(3-indolyl))]-NH2)", "%", 6.7],
  ["C[C@@H](c1ccccc1)N(CC(=O)N(CCCCN)CC(=O)N(CC(=O)N(CC(=O)N(CCCCN)CC(=O)N(CC(=O)N(CC(=O)N(CCCCN)CC(=O)N(CCc1c[nH]c2ccccc12)CC(=O)N(CCc1c[nH]c2ccccc12)CC(N)=O)Cc1ccccc1)Cc1ccccc1)Cc1ccccc1)Cc1ccccc1)C(=O)CN(Cc1ccccc1)C(=O)CN(CCCCN)C(=O)[C@H](Cc1c[nH]cn1)NC(=O)CNC(=O)CN (H-GGH[Nlys][Nphe][Nspe][Nlys][Nphe][Nphe][Nlys][Nphe][Nphe][Nlys][Gly(N(CH2)2(3-indolyl))][Gly(N(CH2)2(3-indolyl))]-NH2)", "%", 40.6],
  ["C[C@@H](c1ccccc1)N(CC(N)=O)C(=O)CN(C(=O)CN(CCCCN)C(=O)CN(C(=O)CN(C(=O)CN(CCCCN)C(=O)CN(C(=O)CN(C(=O)CN(CCCCN)C(=O)CN(CCc1c[nH]c2ccccc12)C(=O)CN(CCc1c[nH]c2ccccc12)C(=O)CNCCCCN)[C@@H](C)c1ccccc1)[C@@H](C)c1ccccc1)[C@@H](C)c1ccccc1)[C@@H](C)c1ccccc1)[C@@H](C)c1ccccc1", "%", 73.9],
  ["C[C@@H](c1ccccc1)N(CC(=O)N(CCCCN)CC(=O)N(CC(=O)N(CC(=O)N(CCCCN)CC(=O)N(CC(=O)N(CC(=O)N(CCCCN)CC(=O)N(CC(=O)N(CC(N)=O)Cc1ccccc1)Cc1ccccc1)Cc1ccccc1)Cc1ccccc1)Cc1ccccc1)Cc1ccccc1)C(=O)CN(Cc1ccccc1)C(=O)CN(CCCCN)C(=O)[C@H](Cc1c[nH]cn1)NC(=O)CNC(=O)CN (H-GGH[Nlys][Nphe][Nspe][Nlys][Nphe][Nphe][Nlys][Nphe][Nphe][Nlys][Nphe][Nphe]-NH2)", "%", 0.92],
  ["C[C@@H](c1ccccc1)N(CC(N)=O)C(=O)CN(CCCCN)C(=O)CN(Cc1ccccc1)C(=O)CN(Cc1ccccc1)C(=O)CN(CCCCN)C(=O)CN(C(=O)CN(C(=O)CN(CCCCN)C(=O)CN(Cc1ccccc1)C(=O)CN(Cc1ccccc1)C(=O)CN(CCCCN)C(=O)CNC(=O)[C@H](Cc1c[nH]cn1)NC(=O)CNC(=O)CN)[C@@H](C)c1ccccc1)[C@@H](C)c1ccccc1 (H-GGHG[Nlys][Nphe][Nphe][Nlys][Nspe][Nspe][Nlys][Nphe][Nphe][Nlys][Nspe]-NH2)", "%", 20.8],
  ["C[C@@H](c1ccccc1)N(CC(N)=O)C(=O)CN(CCCCN)C(=O)CN(C(=O)CN(C(=O)CN(CCCCN)C(=O)CN(C(=O)CN(C(=O)CN(CCCCN)C(=O)CN(C(=O)CN(C(=O)CN(CCCCN)C(=O)CNC(=O)[C@H](Cc1c[nH]cn1)NC(=O)CNC(=O)CN)[C@@H](C)c1ccccc1)[C@@H](C)c1ccccc1)[C@@H](C)c1ccccc1)[C@@H](C)c1ccccc1)[C@@H](C)c1ccccc1)[C@@H](C)c1ccccc1 (H-GGHG[Nlys][Nspe][Nspe][Nlys][Nspe][Nspe][Nlys][Nspe][Nspe][Nlys][Nspe]-NH2)", "%", 49.8],
  ["C[C@@H](c1ccccc1)N(CC(=O)NC[C@H](N)C(=O)NCC(=O)N[C@@H](Cc1c[nH]cn1)C(N)=O)C(=O)CN(CCCCN)C(=O)CN(C(=O)CN(C(=O)CN(CCCCN)C(=O)CN(C(=O)CN(C(=O)CN(CCCCN)C(=O)CN(C(=O)CN(C(=O)CNCCCCN)[C@@H](C)c1ccccc1)[C@@H](C)c1ccccc1)[C@@H](C)c1ccccc1)[C@@H](C)c1ccccc1)[C@@H](C)c1ccccc1)[C@@H](C)c1ccccc1 (H-[Nlys][Nspe][Nspe][Nlys][Nspe][Nspe][Nlys][Nspe][Nspe][Nlys][Nspe]-X1)", "%", 19.1],
  ["C[C@@H](c1ccccc1)N(CC(N)=O)C(=O)CN(CCCCN)C(=O)CN(C(=O)CN(C(=O)CN(CCCCN)C(=O)CN(C(=O)CN(C(=O)CN(CCCCN)C(=O)CN(C(=O)CN(C(=O)CNCCCCN)[C@@H](C)c1ccccc1)[C@@H](C)c1ccccc1)[C@@H](C)c1ccccc1)[C@@H](C)c1ccccc1)[C@@H](C)c1ccccc1)[C@@H](C)c1ccccc1 (H-[Nlys][Nspe][Nspe][Nlys][Nspe][Nspe][Nlys][Nspe][Nspe][Nlys][Nspe]-NH2)", "%", 96.5]
]}
